Jurkat chemotaxis (% of control IgG4) at 0.001 µg/mL overview
Target: T1, human CD81 on CD81-expressing cells (Jurkat E6.1, human PBMC, Ramos) (human, UniProt P60033 1-236)
T1 sequence: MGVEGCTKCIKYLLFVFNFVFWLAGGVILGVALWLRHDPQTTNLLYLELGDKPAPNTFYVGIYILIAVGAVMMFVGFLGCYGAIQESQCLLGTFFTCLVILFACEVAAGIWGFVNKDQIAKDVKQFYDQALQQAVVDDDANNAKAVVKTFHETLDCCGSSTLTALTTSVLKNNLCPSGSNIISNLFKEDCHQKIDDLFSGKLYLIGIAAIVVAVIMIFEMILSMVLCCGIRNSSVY
Test: cell-based or functional assay
Report the value in % with no unit label.

002-D03 (antibody, human IgG4 S228P, lambda, V domains shown, IgG4 S228P) VH: EVQLLESGGGLVQPGGSLRLSCAASGFTFRSNYMSWVRQAPGKGLEWVSYISSSSTYTDYADSVKGRFTISRDNSKNTLYLQMNSLRAEDTAVYYCARYSYGRDNFDYWGQGTLVTVSS VL: QSVLTQPPSASGTPGQRVTISCTGSTSNIGAGYDTHWYQQLPGTAPKLLIYGNSNRPSGVPDRFSGSKSGTSASLAISGLRSEDEADYYCQSYDTNLSVWVFGGGTKLTVLG : 105
002-D08 (antibody, human IgG4 S228P, lambda, V domains shown, IgG4 S228P) VH: EVQLLESGGGLVQPGGSLRLSCATSGFPFSSNYMSWVRQAPGKGLEWVSYISSSSTYSDYADSVKGRFSISRDNSKNTLYLQMNSLRAEDTAVYYCARYSYGRDNFDYWGQGTLVTVSS VL: QSVLTQPSSASGTPGQRVTISCTGSTSNIGAGYATHWYQQLPGTAPKLLIYGNSNRPSGVPDRFSGSKSGTSASLAISGLRSEDEADYYCQSYDTNLSVWVFGGGTKLTVLG : 101

Kindly consider the entry below.
Form: binder = 002-H03 (antibody, human IgG4 S228P, lambda, V domains shown, IgG4 S228P) VH: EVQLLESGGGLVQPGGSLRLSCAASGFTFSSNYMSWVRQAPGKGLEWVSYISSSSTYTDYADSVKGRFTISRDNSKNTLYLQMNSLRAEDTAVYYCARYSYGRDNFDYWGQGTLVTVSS VL: QSVLTQPSSASGTPGQRVTISCTGSTSNIGAGYDTHWYQQLPGTAPKPLIYGNSNRPSGVPDRFSGSKSGTSASLAISGLRSEDEADYYCQSYDTNLSAWVFGGGTKLTVLG ; Jurkat chemotaxis (% of control IgG4) at 0.001 µg/mL = 106

Origin of measurements: patent US20150139990A1
